target: Histone deacetylase 1 (Homo sapiens, UniProt Q13547); assay: Inhibition of human recombinant HDAC1 using ZMAL (Z-(Ac)Lys-AMC) as fluorogenic substrate incubated for 120 mins by microplate reader assay
Sequence (Q13547 whole entry): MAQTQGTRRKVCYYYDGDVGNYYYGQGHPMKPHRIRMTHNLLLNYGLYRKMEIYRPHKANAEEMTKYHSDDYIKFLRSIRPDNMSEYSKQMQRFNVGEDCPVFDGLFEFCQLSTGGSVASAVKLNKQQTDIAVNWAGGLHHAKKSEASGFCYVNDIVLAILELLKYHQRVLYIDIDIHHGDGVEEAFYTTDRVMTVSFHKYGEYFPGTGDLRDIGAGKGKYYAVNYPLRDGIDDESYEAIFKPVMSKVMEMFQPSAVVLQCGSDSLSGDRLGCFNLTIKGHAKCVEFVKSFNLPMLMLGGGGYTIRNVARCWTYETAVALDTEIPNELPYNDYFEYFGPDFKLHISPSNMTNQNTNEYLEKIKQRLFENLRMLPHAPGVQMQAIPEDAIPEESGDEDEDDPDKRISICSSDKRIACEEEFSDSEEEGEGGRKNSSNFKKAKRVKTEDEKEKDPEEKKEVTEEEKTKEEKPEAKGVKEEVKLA
pIC50: −log10 of the molar value.
quantity.kind: pIC50

molecule	numeric.readout
CC1(C)c2ccccc2N(Cc2ccc(C(=O)NO)s2)C1c1cccnc1 (racemic)	5.20
CN1CCC2(CC1)c1ccccc1N(Cc1ccc(C(=O)NO)cc1)C2c1cccnc1 (racemic)	5.12
CN1CCC2(CC1)c1ccccc1N(Cc1ccc(C(=O)NO)cc1)C2c1ccccc1 (racemic)	5.37
CC1(C)c2ccccc2N(Cc2ccc(C(=O)NO)cc2)C1c1ccccc1 (racemic)	4.73
CN1CCC2(CC1)c1ccccc1N(Cc1ccc(C(=O)NO)cc1)C2c1ccc(Cl)cc1 (racemic)	5.44
CC1(C)c2ccccc2N(Cc2ccc(C(=O)NO)cc2)[C@@H]1c1cccnc1	5.47

----------
target: Histone deacetylase 1 (Homo sapiens, UniProt Q13547); assay: Inhibition of HDAC1 in human NB-4 cells assessed as increase in acetylation of histone H3 at 5 uM incubated for 30 hrs by western blot analysis; type: cell-based
The source made the active and inactive calls. The calls are words filed in the database; no cut-off is given here.
Possible outcomes: yes = active, no = inactive

compound	cat
CC1(C)c2ccccc2N(Cc2ccc(C(=O)NO)cc2)C1c1ccncc1 (racemic)	no
CN1CCC2(CC1)c1ccccc1N(Cc1ccc(C(=O)NO)cc1)C2c1ccccc1 (racemic)	no
CC1(C)c2ccccc2N(Cc2ccc(C(=O)NO)cc2)C1c1cccnc1 (racemic)	no
CN1CCC2(CC1)c1ccccc1N(Cc1ccc(C(=O)NO)cc1)C2c1ccc(F)cc1 (racemic)	no
CN1CCC2(CC1)c1ccccc1N(Cc1ccc(C(=O)NO)cc1)C2c1ccccc1F (racemic)	yes

----------
target: Histone deacetylase 1 (Homo sapiens, UniProt Q13547); assay: Inhibition of HDAC1 in human U87 cells assessed as increase in acetylation of histone H3 at 5 uM incubated for 30 hrs by western blot analysis; format: cell-based
Calls of active or inactive are those of the source. No cut-off for these calls is given here.
Possible outcomes: T for active, F for inactive

compound	cat
CC1(C)c2ccccc2N(Cc2ccc(C(=O)NO)cc2)C1c1cccnc1 (racemic)	F
CN1CCC2(CC1)c1ccccc1N(Cc1ccc(C(=O)NO)cc1)C2c1ccccc1F (racemic)	T
CN1CCC2(CC1)c1ccccc1N(Cc1ccc(C(=O)NO)cc1)C2c1ccccc1 (racemic)	F
CC1(C)c2ccccc2N(Cc2ccc(C(=O)NO)cc2)C1c1ccncc1 (racemic)	F
CN1CCC2(CC1)c1ccccc1N(Cc1ccc(C(=O)NO)cc1)C2c1ccc(F)cc1 (racemic)	F

----------
Quick list: pIC50 per entry.
molecular target: UniProt:Q13547; assay: Inhibition of human recombinant HDAC1 using ZMAL (Z-(Ac)Lys-AMC) as fluorogenic substrate incubated for 120 mins by microplate reader assay
pIC50: −log10 of the molar value.
quantity.kind: pIC50

compound	experimental.target	numeric.readout
CN1CCC2(CC1)c1ccccc1N(Cc1ccc(C(=O)NO)cc1)C2c1ccccc1F (racemic)	UniProt:Q13547	5.31
COc1ccc2c(c1)C(C)(C)C(c1cccnc1)N2Cc1ccc(C(=O)NO)cc1 (racemic)	UniProt:Q13547	5.27
CC1(C)c2ccccc2N(Cc2ccc(C(=O)NO)cc2)[C@H]1c1cccnc1	UniProt:Q13547	4.79
CC(C)(C)OC(=O)N1CCC2(CC1)c1ccccc1N(Cc1ccc(C(=O)NO)cc1)C2c1cccnc1 (racemic)	UniProt:Q13547	5.09
CC1(C)c2ccccc2N(Cc2ccc(OCCCC(=O)NO)cc2)C1c1cccnc1 (racemic)	UniProt:Q13547	5.79
CN1CCC2(CC1)c1ccccc1N(Cc1ccc(C(=O)NO)cc1)C2c1ccc(F)cc1 (racemic)	UniProt:Q13547	5.21
CN1CCC2(CC1)c1ccccc1N(Cc1ccc(C(=O)NO)cc1)C2c1cccc(Cl)c1 (racemic)	UniProt:Q13547	5.09
CC1(C)c2ccccc2N(Cc2ccc(C(=O)NO)cc2)C1c1ccncc1 (racemic)	UniProt:Q13547	4.97
CC1(C)c2ccccc2N(Cc2ccc(C(=O)NO)cc2)C1c1cccnc1 (racemic)	UniProt:Q13547	5.27

----------
Quick list: remaining at 24 h per entry.
assay: Chemical stability of the compound at pH 3 incubated for 24 hrs by HPLC-UV analysis; type: physicochemical; details: buffer, read-out: Stability
quantity.kind: remaining at 24 h (%)

compound	quantity.kind	measure.unit	numeric.readout
CC1(C)c2ccccc2N(Cc2ccc(C(=O)NO)cc2)C1c1cccnc1 (racemic)	remaining at 24 h	%	89
CN1CCC2(CC1)c1ccccc1N(Cc1ccc(C(=O)NO)cc1)C2c1ccccc1F (racemic)	remaining at 24 h	%	98

----------
molecular target: Protein deacetylase HDAC6 (Homo sapiens, UniProt Q9UBN7); test: Inhibition of human recombinant HDAC6 using ZMAL (Z-(Ac)Lys-AMC) as fluorogenic substrate incubated for 120 mins by microplate reader assay
Sequence (Q9UBN7 whole entry): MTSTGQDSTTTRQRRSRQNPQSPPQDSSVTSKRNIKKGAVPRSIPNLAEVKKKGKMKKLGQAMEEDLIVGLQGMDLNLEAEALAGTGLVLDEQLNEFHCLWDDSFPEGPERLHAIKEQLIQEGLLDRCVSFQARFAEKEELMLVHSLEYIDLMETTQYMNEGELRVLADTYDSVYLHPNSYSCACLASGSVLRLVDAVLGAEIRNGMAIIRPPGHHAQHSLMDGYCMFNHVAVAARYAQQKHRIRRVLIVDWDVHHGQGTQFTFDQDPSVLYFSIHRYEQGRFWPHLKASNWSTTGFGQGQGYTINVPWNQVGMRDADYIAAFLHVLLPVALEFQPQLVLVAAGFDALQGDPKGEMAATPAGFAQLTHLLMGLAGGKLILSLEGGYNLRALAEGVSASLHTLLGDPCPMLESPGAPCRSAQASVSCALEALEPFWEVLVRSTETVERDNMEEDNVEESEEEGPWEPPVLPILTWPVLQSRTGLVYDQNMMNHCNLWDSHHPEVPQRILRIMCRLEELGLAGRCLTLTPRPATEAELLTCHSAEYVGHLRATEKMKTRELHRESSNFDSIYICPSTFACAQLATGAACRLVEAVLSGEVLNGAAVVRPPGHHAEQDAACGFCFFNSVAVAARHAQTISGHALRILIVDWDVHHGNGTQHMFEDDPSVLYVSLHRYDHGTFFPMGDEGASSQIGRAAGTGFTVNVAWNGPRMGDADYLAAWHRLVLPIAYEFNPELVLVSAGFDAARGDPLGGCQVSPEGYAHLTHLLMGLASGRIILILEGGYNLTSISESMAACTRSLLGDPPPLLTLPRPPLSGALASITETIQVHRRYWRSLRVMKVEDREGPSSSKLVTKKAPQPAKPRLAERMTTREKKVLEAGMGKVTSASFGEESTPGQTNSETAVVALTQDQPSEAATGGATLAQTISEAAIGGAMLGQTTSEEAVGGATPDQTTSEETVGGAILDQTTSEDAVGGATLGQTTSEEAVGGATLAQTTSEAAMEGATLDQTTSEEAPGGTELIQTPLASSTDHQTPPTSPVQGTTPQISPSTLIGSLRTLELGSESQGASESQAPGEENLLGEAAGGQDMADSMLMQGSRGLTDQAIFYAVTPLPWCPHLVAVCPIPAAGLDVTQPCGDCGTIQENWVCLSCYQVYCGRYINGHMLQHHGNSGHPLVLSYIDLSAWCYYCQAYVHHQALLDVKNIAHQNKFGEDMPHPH

compound	IC50, nM
CN1CCC2(CC1)c1ccccc1N(Cc1ccc(C(=O)NO)cc1)C2c1ccc(Cl)cc1 (racemic)	165
CC1(C)c2ccccc2N(Cc2ccc(C(=O)NO)cc2)C1c1cccnc1 (racemic)	41.9
CN1CCC2(CC1)c1ccccc1N(Cc1ccc(C(=O)NO)cc1)C2c1ccc(F)cc1 (racemic)	142
CN1CCC2(CC1)c1ccccc1N(Cc1ccc(C(=O)NO)cc1)C2c1cccc(Cl)c1 (racemic)	111
CN1CCC2(CC1)c1ccccc1N(Cc1ccc(C(=O)NO)cc1)C2c1ccccc1F (racemic)	28.5

----------
target: Protein deacetylase HDAC6 (Homo sapiens, UniProt Q9UBN7); assay: Inhibition of human recombinant HDAC6 using ZMAL (Z-(Ac)Lys-AMC) as fluorogenic substrate incubated for 120 mins by microplate reader assay
Assign a class from recorded IC50; defined classes: low bracket (below 70 nM), middle bracket (70 nM to below 200 nM), high bracket (200 nM or more)

compound	cat
CC1(C)c2ccccc2N(Cc2ccc(C(=O)NO)cc2)C1c1ccncc1 (racemic)	low bracket
CC(C)(C)OC(=O)N1CCC2(CC1)c1ccccc1N(Cc1ccc(C(=O)NO)cc1)C2c1cccnc1 (racemic)	middle bracket
COc1ccc2c(c1)C(C)(C)C(c1cccnc1)N2Cc1ccc(C(=O)NO)cc1 (racemic)	low bracket
CC1(C)c2ccccc2N(Cc2ccc(C(=O)NO)cc2)[C@H]1c1cccnc1	middle bracket
CC1(C)c2ccccc2N(Cc2ccc(C(=O)NO)cc2)C1c1ccccc1 (racemic)	middle bracket
CC1(C)c2ccccc2N(Cc2ccc(OCCCC(=O)NO)cc2)C1c1cccnc1 (racemic)	high bracket
CC1(C)c2ccccc2N(Cc2ccc(C(=O)NO)s2)C1c1cccnc1 (racemic)	high bracket
CN1CCC2(CC1)c1ccccc1N(Cc1ccc(C(=O)NO)cc1)C2c1cccnc1 (racemic)	middle bracket
CN1CCC2(CC1)c1ccccc1N(Cc1ccc(C(=O)NO)cc1)C2c1ccccc1 (racemic)	middle bracket

----------
Target: Histone deacetylase 8 (Homo sapiens, UniProt Q9BY41)
Sequence (Q9BY41 whole entry): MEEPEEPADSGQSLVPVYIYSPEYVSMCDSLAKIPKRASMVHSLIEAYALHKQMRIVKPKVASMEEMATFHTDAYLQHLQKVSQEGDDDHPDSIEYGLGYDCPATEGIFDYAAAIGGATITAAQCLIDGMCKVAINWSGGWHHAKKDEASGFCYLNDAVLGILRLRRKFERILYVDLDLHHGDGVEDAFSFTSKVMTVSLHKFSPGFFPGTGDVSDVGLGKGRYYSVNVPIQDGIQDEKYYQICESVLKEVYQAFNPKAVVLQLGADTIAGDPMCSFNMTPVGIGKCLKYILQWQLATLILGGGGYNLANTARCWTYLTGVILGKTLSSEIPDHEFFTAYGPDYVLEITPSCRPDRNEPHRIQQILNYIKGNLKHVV
Assay: Inhibition of human recombinant HDAC8 using FLUOR DE LYS fluorometric substrate pre-incubated for 15 mins and followed by substrate addition and measured after 60 mins by microplate reader assay
quantity.kind: IC50 (µM)

compound	experimental.target	quantity.kind	numeric.readout
CC1(C)c2ccccc2N(Cc2ccc(C(=O)NO)cc2)C1c1ccncc1 (racemic)	Histone deacetylase 8 (Homo sapiens, UniProt Q9BY41)	IC50	4.64
CN1CCC2(CC1)c1ccccc1N(Cc1ccc(C(=O)NO)cc1)C2c1ccccc1F (racemic)	Histone deacetylase 8 (Homo sapiens, UniProt Q9BY41)	IC50	3.49
CC1(C)c2ccccc2N(Cc2ccc(C(=O)NO)cc2)C1c1cccnc1 (racemic)	Histone deacetylase 8 (Homo sapiens, UniProt Q9BY41)	IC50	2.17
